assayed-system: recombinant human GST-SYK (Homo sapiens, UniProt P43405)
Construct: purchased Carna Biosciences 08-176
assay-explanation: Homogeneous Time-Resolved Fluorescence (HTRF) assay for the recombinant human Syk enzyme
Assay type: biochemical
settings: HTRF assay, recombinant human GST-SYK; IC50 given as class symbols; read-out: rhSYK Activity
pIC50: −log10 of the molar value.
Listed here are compounds together with their documented pIC50.

Solved entries (count: 7):
In [3]: df
Out[3]:
                                   compound  readout_type        result
0  Cc1cc(Nc2nccc(C(F)(F)F)n2)cc(-c2ccc(NCC(C)O)nc2)c1 (centres unmarked)         pIC50        > 7.00
1  Cn1c(-c2cccc(Nc3nccc(C(F)(F)F)n3)c2)cccc1=O         pIC50  6.00 to 7.00
2  Cc1cc(Nc2nccc(C)n2)cc(-c2ccnc(CCC(=O)O)c2)c1         pIC50        > 7.00
3  Cc1cc(Nc2nccc(C)n2)cc(-c2ccc(C3(O)CCC(C(=O)O)C(C)(C)C3)nc2)c1 (centres unmarked)         pIC50        > 7.00
4  Cc1cc(Nc2nccc(C(F)(F)F)n2)cc(-c2ccc(C(=O)N3CCCC(C)(O)C3)nc2)c1 (centres unmarked)         pIC50        > 7.00
5  Cc1cc(Nc2nccc(C(F)(F)F)n2)cc(-c2ccc(NC(C)c3ccccn3)nc2)c1 (centres unmarked)         pIC50  6.00 to 7.00
6  Cc1cc(Nc2nccc(C(F)(F)F)n2)cc(-c2ccnc(N3CC4CNC(CO)C4C3)c2)c1 (centres unmarked)         pIC50  5.00 to 6.00

Okay, next one:
Q: Complete the entry with pIC50 for COCC(Nc1ccc(-c2cc(C)cc(Nc3nccc(C(F)(F)F)n3)c2)cn1)C(=O)O (centres unmarked)
Result: > 7.00
